Origin of values: ChEMBL document CHEMBL1131332

- RUN DESCRIPTION: Pharmacokinetic parameter (Absolute oral bioavailability) was evaluated in Spargue-Dawley rat when given peroral at dose 30 mg/kg
- Assay type: ADME, organism-based
- SETUP CONDITIONS: Sprague-Dawley, in vivo
REPORTED PROPERTY: bioavailability

q: Sample C[C@H](Sc1nc(N)cc(Cl)n1)c1cc2ccoc2cn1 — what was its bioavailability?
a: 94%

----------
- RUN DESCRIPTION: Pharmacokinetic parameter (tmax ) was evaluated in Spargue-Dawley rat when given intravenously at dose 15 mg/kg
- Format: ADME, organism-based
- Set-up: dose 15 mg/kg, route intravenous
- SETUP CONDITIONS: Sprague-Dawley, in vivo, iv
REPORTED PROPERTY: Tmax

q: Sample C[C@H](Sc1nc(N)cc(Cl)n1)c1cc2ccoc2cn1 — what was its Tmax?
a: 1.98 min

----------
For each record, write down the corresponding IC50.
- TARGET UNDER TEST: Human immunodeficiency virus type 1 reverse transcriptase (Human immunodeficiency virus 1, UniProt Q72547)
Give the number; µM is assumed, so skip it.

q: Sample C[C@@H](Sc1nc(N)cc(Cl)n1)c1cc2ccoc2cn1 — what was its IC50?
a: 0.085

q: Sample C[C@H](Sc1nc(N)cc(Cl)n1)c1cc2ccoc2cn1 — what was its IC50?
a: 0.02

q: Sample CC(Sc1nc(N)cc(Cl)n1)c1cc2ccoc2cn1 (stereo not drawn) — what was its IC50?
a: 0.024

----------
- RUN DESCRIPTION: Pharmacokinetic parameter (Vss ) was evaluated in Spargue-Dawley rat when given intravenously at dose 15 mg/kg
- Format: ADME, organism-based
- Design: dose 15 mg/kg, route intravenous
- SETUP CONDITIONS: Sprague-Dawley, in vivo, iv, read-out: Vss
REPORTED PROPERTY: Vd (L/kg)
Give the number; L/kg is assumed, so skip it.

q: Sample C[C@H](Sc1nc(N)cc(Cl)n1)c1cc2ccoc2cn1 — what was its Vd?
a: 0.55

----------
For each record, write down the corresponding pIC50.
- TARGET UNDER TEST: Human immunodeficiency virus type 1 reverse transcriptase (Human immunodeficiency virus 1, UniProt Q72547, E233V)
- RUN DESCRIPTION: Inhibitory activity against E233V mutant HIV-1 reverse transcriptase
As a rule, pIC50 stands for the negative log10 of the concentration, concentration in M.

q: Sample CC(Sc1nc(N)cc(Cl)n1)c1cc2ccoc2cn1 (configuration not stated) — what was its pIC50?
a: 7.36

q: Sample C[C@H](Sc1nc(N)cc(Cl)n1)c1cc2ccoc2cn1 — what was its pIC50?
a: 7.77

----------
- RUN DESCRIPTION: Apparent terminal disposition half-life (t1/2 ) was evaluated in Spargue-Dawley rat when given peroral at dose 30 mg/kg
- Format: ADME, organism-based
- Design: dose 30 mg/kg, route oral
- SETUP CONDITIONS: Sprague-Dawley, in vivo, po
REPORTED PROPERTY: half-life (min)
Give the number; min is assumed, so skip it.

q: Sample C[C@H](Sc1nc(N)cc(Cl)n1)c1cc2ccoc2cn1 — what was its half-life?
a: 46.8

----------
- RUN DESCRIPTION: Pharmacokinetic parameter (Absolute oral bioavailability) was evaluated in Spargue-Dawley rat when given peroral at dose 80 mg/kg
- Format: ADME, organism-based
- SETUP CONDITIONS: Sprague-Dawley, in vivo
REPORTED PROPERTY: bioavailability (%)
Give the number; % is assumed, so skip it.

q: Sample C[C@H](Sc1nc(N)cc(Cl)n1)c1cc2ccoc2cn1 — what was its bioavailability?
a: 94
